Tested on: Chordin-like protein 2 (CHRDL2)
assayDetails: CHRDL2 small-molecule binders, primary screen, biochemical, small-molecule microarray, 635 nm fluorescence (AID 1126);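 further: printed compound slides probed with Chrdl2 protein at 4 µg/mL for 1 h at 4 C; score merges 667 nm emission intensity with signal to noise over three replicate slides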
conditionParameters: small-molecule microarray binding, fluorescence 635 nm; higher = more signal
Kindly state composite z-score for each of the entries shown.
One number for each entry.

compound	measuredMetric	measuredResult
COCCOC(=O)N1C(=O)[C@@]2(c3cc(C#CC4=CCCCC4)ccc31)[C@H](C(=O)N1CCCCCCC1)[C@H]1C(=O)O[C@H](c3ccccc3)[C@H](c3ccccc3)N1[C@@H]2c1ccc(O)cc1	composite z-score	0.277
CC(C)[Si](C#C[Si](C(C)C)(C(C)C)C(C)C)(O[C@H](C)c1cn([C@H](CO)Cc2ccccc2)nn1)C(C)C	composite z-score	0.498

Here is the next item to consider.
Value of measured composite z-score for the entry `COC(=O)[C@@]1(Cc2ccccc2)[C@H]2c3cc(C(=O)N(C)C)n(CCN4CNCC4=O)c3C[C@H]2CN1C(=O)c1ccccc1` : -1.16
